Data origin: PubChem BioAssay AID1963840

Recorded viability, T/C for the following compounds
- Tested on: 695427-040-R-J1-PDC complex spheroid viability
- Assay method text: Anticancer human tumor 695427-040-R-J1-PDC patient-derived colon adenocarcinoma cell line growth inhibition [POLQ]
- Assay setup: second compound 10 µM; first compound 0.316 µM; stronger effect = lower value
Enter your answer as a number in %; do not include the unit.

[in] # input compound: C=CCn1c(=O)c2cnc(Nc3ccc(N4CCN(C)CC4)cc3)nc2n1-c1cccc(C(C)(C)O)n1 + Cc1cccc(N(C)C(=O)C2C(O)CCN2c2nc(C)cc(C(F)(F)F)c2C#N)c1 ; wanted: its viability, T/C
[out] 91.4

[in] # input compound: C#Cc1c(F)ccc2cc(O)cc(-c3ncc4c(N5CC6CCC(C5)N6)nc(OCC56CCCN5CC(F)C6)nc4c3F)c12 (stereo not drawn) + COC1C(OC(N)=O)C(O)C(Oc2ccc3c(O)c(NC(=O)c4ccc(O)c(CC=C(C)C)c4)c(=O)oc3c2C)OC1(C)C ; wanted: its viability, T/C
[out] 104

[in] # input compound: CC(C)n1c(=O)n(C)c2cnc3cc(F)c(-c4ccc(OCCCN5CCCCC5)nc4)cc3c21 + Nc1ccc(C#CCN(C(=O)Cc2ncc(C(F)(F)F)cc2C(F)(F)F)c2ccc(F)cc2)nn1 ; wanted: its viability, T/C
[out] 101

---

- Tested on: 695427-040-R-J1-PDC complex spheroid viability
- Assay method text: Anticancer human tumor 695427-040-R-J1-PDC cell line growth inhibition [POLQ];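 also: spheroids exposed to compounds for seven days; 100% = DMSO vehicle control viability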
- Assay setup: second compound 10 µM; first compound 0.316 µM; stronger effect = lower value
Recorded viability, T/C for the following molecules

Examples from the recorded data:
| Molecule | Data value |
| --- | --- |
| CC(C)n1c(=O)n(C)c2cnc3cc(F)c(-c4ccc(OCCCN5CCCCC5)nc4)cc3c21 + COC1C(OC(N)=O)C(O)C(Oc2ccc3c(O)c(NC(=O)c4ccc(O)c(CC=C(C)C)c4)c(=O)oc3c2C)OC1(C)C | 110% |
| COc1cccc2c1C(=O)c1c(O)c3c(c(O)c1C2=O)CC(O)(C(=O)CO)CC3OC1CC(N)C(O)C(C)O1 (stereo unspecified) + Nc1ccc(C#CCN(C(=O)Cc2ncc(C(F)(F)F)cc2C(F)(F)F)c2ccc(F)cc2)nn1 | 86.6% |
| Nc1ccn(C2OC(CO)C(O)C2(F)F)c(=O)n1 (stereo unspecified) + COC1C(OC(N)=O)C(O)C(Oc2ccc3c(O)c(NC(=O)c4ccc(O)c(CC=C(C)C)c4)c(=O)oc3c2C)OC1(C)C | 75.3% |
| CCCS(=O)(=O)Nc1ccc(F)c(C(=O)c2c[nH]c3ncc(-c4ccc(Cl)cc4)cc23)c1F + Cc1cccc(N(C)C(=O)C2C(O)CCN2c2nc(C)cc(C(F)(F)F)c2C#N)c1 | 92% |
| CC1COCCN1c1cc(C2(O)CC3CCC(C2)O3)c2cnn(-c3ccn[nH]3)c2n1 (stereo unspecified) + Nc1ccc(C#CCN(C(=O)Cc2ncc(C(F)(F)F)cc2C(F)(F)F)c2ccc(F)cc2)nn1 | 78.3% |

[in] # input molecule: O=c1[nH]cc(F)c(=O)[nH]1 + Cc1cccc(N(C)C(=O)C2C(O)CCN2c2nc(C)cc(C(F)(F)F)c2C#N)c1 ; wanted: its viability, T/C
[out] 87.5%

[in] # input molecule: COc1ccc([C@@H](O)c2cc(-c3ncnc4cc(N5CCOCC5)ccc34)c(F)cc2Cl)nn1 + Nc1ccc(C#CCN(C(=O)Cc2ncc(C(F)(F)F)cc2C(F)(F)F)c2ccc(F)cc2)nn1 ; wanted: its viability, T/C
[out] 90.1%

[in] # input molecule: CCCS(=O)(=O)Nc1ccc(F)c(C(=O)c2c[nH]c3ncc(-c4ccc(Cl)cc4)cc23)c1F + Nc1ccc(C#CCN(C(=O)Cc2ncc(C(F)(F)F)cc2C(F)(F)F)c2ccc(F)cc2)nn1 ; wanted: its viability, T/C
[out] 110%

[in] # input molecule: C=CCn1c(=O)c2cnc(Nc3ccc(N4CCN(C)CC4)cc3)nc2n1-c1cccc(C(C)(C)O)n1 + Nc1ccc(C#CCN(C(=O)Cc2ncc(C(F)(F)F)cc2C(F)(F)F)c2ccc(F)cc2)nn1 ; wanted: its viability, T/C
[out] 81.8%

[in] # input molecule: CC1COCCN1c1cc(-c2ccnn2C)c2ccnc(-c3ccn[nH]3)c2n1 (stereo unspecified) + Cc1cccc(N(C)C(=O)C2C(O)CCN2c2nc(C)cc(C(F)(F)F)c2C#N)c1 ; wanted: its viability, T/C
[out] 61.2%

[in] # input molecule: O=C(c1cc(Cc2n[nH]c(=O)c3ccccc23)ccc1F)N1CCN(C(=O)C2CC2)CC1 + Cc1cccc(N(C)C(=O)C2C(O)CCN2c2nc(C)cc(C(F)(F)F)c2C#N)c1 ; wanted: its viability, T/C
[out] 97.9%

---

- System: 695427-040-R-J1-PDC complex spheroid viability
- Assay method text: Anticancer human tumor 695427-040-R-J1-PDC cell line growth inhibition [POLQ];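 also: spheroids exposed to compounds for seven days; 100% = DMSO vehicle control viability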
- Assay setup: second compound 10 µM; first compound 0.0316 µM; stronger effect = lower value
Measure: viability, T/C (%)
Enter your answer as a number in %; do not include the unit.

Examples from the recorded data:
| Compound | Target of assay | Value units | viability, T/C |
| --- | --- | --- | --- |
| O=C(c1cc(Cc2n[nH]c(=O)c3ccccc23)ccc1F)N1CCN(C(=O)C2CC2)CC1 + COC1C(OC(N)=O)C(O)C(Oc2ccc3c(O)c(NC(=O)c4ccc(O)c(CC=C(C)C)c4)c(=O)oc3c2C)OC1(C)C | 695427-040-R-J1-PDC complex spheroid viability | % | 103 |
| Nc1ccn(C2OC(CO)C(O)C2(F)F)c(=O)n1 (stereo not drawn) + COC1C(OC(N)=O)C(O)C(Oc2ccc3c(O)c(NC(=O)c4ccc(O)c(CC=C(C)C)c4)c(=O)oc3c2C)OC1(C)C | 695427-040-R-J1-PDC complex spheroid viability | % | 93.1 |

// switching to the query compound
[in] # input compound: CCCS(=O)(=O)Nc1ccc(F)c(C(=O)c2c[nH]c3ncc(-c4ccc(Cl)cc4)cc23)c1F + COC1C(OC(N)=O)C(O)C(Oc2ccc3c(O)c(NC(=O)c4ccc(O)c(CC=C(C)C)c4)c(=O)oc3c2C)OC1(C)C ; wanted: its viability, T/C
[out] 107

---

Recorded viability, T/C for the following compounds
- System: 695427-040-R-J1-PDC complex spheroid viability
- Assay method text: Anticancer human tumor 695427-040-R-J1-PDC cell line growth inhibition [POLQ];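 also: spheroids exposed to compounds for seven days; 100% = DMSO vehicle control viability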
- Assay setup: second compound 0.316 µM; first compound 0.0316 µM; stronger effect = lower value
Enter your answer as a number in %; do not include the unit.

Examples from the recorded data:
| Compound | Target of assay | viability, T/C, % |
| --- | --- | --- |
| C=CC(=O)N1CCN(c2nc(=O)n(-c3c(C)ccnc3C(C)C)c3nc(-c4c(O)cccc4F)c(F)cc23)C(C)C1 (stereo not drawn) + Nc1ccc(C#CCN(C(=O)Cc2ncc(C(F)(F)F)cc2C(F)(F)F)c2ccc(F)cc2)nn1 | 695427-040-R-J1-PDC complex spheroid viability | 116 |
| CCc1cc2c(N3CCc4c(cc(Cn5ccnc5)cc4-c4cn(C)nc4C(F)(F)F)C3=O)ccnc2c(OC)n1 + COC1C(OC(N)=O)C(O)C(Oc2ccc3c(O)c(NC(=O)c4ccc(O)c(CC=C(C)C)c4)c(=O)oc3c2C)OC1(C)C | 695427-040-R-J1-PDC complex spheroid viability | 111 |

// switching to the query compound
[in] Under 695427-040-R-J1-PDC complex spheroid viability: viability, T/C value of CNCc1ccc(-c2[nH]c3cc(F)cc4c3c2CCNC4=O)cc1 + Cc1cccc(N(C)C(=O)C2C(O)CCN2c2nc(C)cc(C(F)(F)F)c2C#N)c1 ?
[out] 104

---

Recorded viability, T/C for the following compounds
- Test system: 695427-040-R-J1-PDC complex spheroid viability
- Assay method text: Anticancer human tumor 695427-040-R-J1-PDC cell line growth inhibition [POLQ];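 also: spheroids exposed to compounds for seven days; 100% = DMSO vehicle control viability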
- Assay setup: second compound 3.16 µM; first compound 3.16 µM; stronger effect = lower value

Examples from the recorded data:
| Compound | viability, T/C |
| --- | --- |
| COc1cc(C2c3cc4c(cc3C(OC3OC5COC(C)OC5C(O)C3O)C3COC(=O)C23)OCO4)cc(OC)c1O (stereo not given) + COC1C(OC(N)=O)C(O)C(Oc2ccc3c(O)c(NC(=O)c4ccc(O)c(CC=C(C)C)c4)c(=O)oc3c2C)OC1(C)C | 98.9% |
| COc1cc(C2c3cc4c(cc3C(OC3OC5COC(C)OC5C(O)C3O)C3COC(=O)C23)OCO4)cc(OC)c1O (stereo not given) + Cc1cccc(N(C)C(=O)C2C(O)CCN2c2nc(C)cc(C(F)(F)F)c2C#N)c1 | 89.6% |
| CC(C)n1c(=O)n(C)c2cnc3cc(F)c(-c4ccc(OCCCN5CCCCC5)nc4)cc3c21 + COC1C(OC(N)=O)C(O)C(Oc2ccc3c(O)c(NC(=O)c4ccc(O)c(CC=C(C)C)c4)c(=O)oc3c2C)OC1(C)C | 102% |

[in] # input compound: O=C(Nc1ccc(O)c(NS(=O)(=O)c2ccc(F)cc2)c1)c1ccc(-c2ccccc2)cc1 + COC1C(OC(N)=O)C(O)C(Oc2ccc3c(O)c(NC(=O)c4ccc(O)c(CC=C(C)C)c4)c(=O)oc3c2C)OC1(C)C ; wanted: its viability, T/C
[out] 115%

[in] # input compound: CC1COCCN1c1cc(C2(O)CC3CCC(C2)O3)c2cnn(-c3ccn[nH]3)c2n1 (stereo not given) + Cc1cccc(N(C)C(=O)C2C(O)CCN2c2nc(C)cc(C(F)(F)F)c2C#N)c1 ; wanted: its viability, T/C
[out] 53.8%

[in] # input compound: C=CC(=O)N1CCN(c2nc(=O)n(-c3c(C)ccnc3C(C)C)c3nc(-c4c(O)cccc4F)c(F)cc23)C(C)C1 (stereo not given) + Cc1cccc(N(C)C(=O)C2C(O)CCN2c2nc(C)cc(C(F)(F)F)c2C#N)c1 ; wanted: its viability, T/C
[out] 103%

[in] # input compound: O=c1[nH]cc(F)c(=O)[nH]1 + COC1C(OC(N)=O)C(O)C(Oc2ccc3c(O)c(NC(=O)c4ccc(O)c(CC=C(C)C)c4)c(=O)oc3c2C)OC1(C)C ; wanted: its viability, T/C
[out] 106%

[in] # input compound: CC(C)n1c(=O)n(C)c2cnc3cc(F)c(-c4ccc(OCCCN5CCCCC5)nc4)cc3c21 + Cc1cccc(N(C)C(=O)C2C(O)CCN2c2nc(C)cc(C(F)(F)F)c2C#N)c1 ; wanted: its viability, T/C
[out] 98.2%

[in] # input compound: C#Cc1c(F)ccc2cc(O)cc(-c3ncc4c(N5CC6CCC(C5)N6)nc(OCC56CCCN5CC(F)C6)nc4c3F)c12 (stereo not given) + Cc1cccc(N(C)C(=O)C2C(O)CCN2c2nc(C)cc(C(F)(F)F)c2C#N)c1 ; wanted: its viability, T/C
[out] 91%

[in] # input compound: CNCc1ccc(-c2[nH]c3cc(F)cc4c3c2CCNC4=O)cc1 + Nc1ccc(C#CCN(C(=O)Cc2ncc(C(F)(F)F)cc2C(F)(F)F)c2ccc(F)cc2)nn1 ; wanted: its viability, T/C
[out] 113%
